Would you mind telling me the reported pKi of each entry?
assay: Inhibition of DNA-dependent DNA polymerase activity of HIV1 reverse transcriptase p66/p66 homodimer using activated DNA and [alpha-32P]dATP after 30 mins by liquid scintillation counting; set-up: species or system Human immunodeficiency virus 1
pKi here is simply -log10 of the concentration when that concentration is written in mol/L.

The compound listed as "O=C(c1cc(Cl)cc(Cl)c1)c1cc(Cl)ccc1OCCn1ccc(=O)[nH]c1=O" has a reported pKi of 6.17

The compound listed as "Cc1cc(C)cc(Cc2cc(C)ccc2OCCn2ccc(=O)[nH]c2=O)c1" has a reported pKi of 5.23

The compound listed as "O=C(c1cc(F)cc(F)c1)c1cc(Cl)ccc1OCCn1ccc(=O)[nH]c1=O" has a reported pKi of 6.11

The compound listed as "Cc1cccc(Cc2cc(C)ccc2OCCn2ccc(=O)[nH]c2=O)c1" has a reported pKi of 4.44

The compound listed as "Cc1ccc(OCCn2ccc(=O)[nH]c2=O)c(C(=O)c2ccccc2)c1" has a reported pKi of 5.25

* * *

experiment: Cytotoxicity against human CEM cells after 4 days by MTT assay; assay type: cell-based; settings: CEM cells (CCRF-CEM)
property.measured: CC50 at 96 h

The molecule listed as "Cc1cc(C)cc(C(=O)c2cc(Cl)ccc2OCCCn2ccc(=O)[nH]c2=O)c1" has a reported CC50 at 96 h of > 20 µM

The molecule listed as "Cc1cc(C)cc(Cc2cc(Br)ccc2OCCn2ccc(=O)[nH]c2=O)c1" has a reported CC50 at 96 h of > 200 µM

The molecule listed as "Cc1cc(C)cc(Cc2cc(Cl)ccc2OCCn2ccc(=O)[nH]c2=O)c1" has a reported CC50 at 96 h of > 200 µM

The molecule listed as Cc1cc(C)cc(C(O)c2cc(Cl)ccc2OCCn2ccc(=O)[nH]c2=O)c1 (centres undefined) has a reported CC50 at 96 h of > 20 µM

* * *

molecular target: Human immunodeficiency virus type 1 reverse transcriptase (Human immunodeficiency virus 1, UniProt Q72547); experiment: Inhibition of RNA-dependent DNA polymerase activity of HIV1 reverse transcriptase p66/p51 heterodimer using [8-3H]dGTP as substrate after 30 mins by liquid scintillation counting
Would you mind telling me the reported Ki of each entry?
Response body: numeric value in nM, unit text excluded.

The compound listed as "O=C(c1ccccc1)c1cc(F)ccc1OCCn1ccc(=O)[nH]c1=O" has a reported Ki of 2600

The compound listed as "O=C(c1cc(Br)cc(Br)c1)c1cc(Cl)ccc1OCCn1ccc(=O)[nH]c1=O" has a reported Ki of 470

The compound listed as "Cc1cc(C)cc(C(=O)c2cc(Br)ccc2OCCn2ccc(=O)[nH]c2=O)c1" has a reported Ki of 1700

The compound listed as "Cc1cc(C)cc(Cc2cc(C)ccc2OCCn2ccc(=O)[nH]c2=O)c1" has a reported Ki of 2700

The compound listed as "O=C(c1ccccc1)c1cc(Br)ccc1OCCn1ccc(=O)[nH]c1=O" has a reported Ki of 450

The compound listed as "Cc1cc(C)cc(Cc2cc(Cl)ccc2OCCn2ccc(=O)[nH]c2=O)c1" has a reported Ki of 2100

The compound listed as "Cc1cc(C)cc(C(=O)c2cc(C)ccc2OCCn2ccc(=O)[nH]c2=O)c1" has a reported Ki of 2000

The compound listed as "Cc1ccc(OCCn2ccc(=O)[nH]c2=O)c(Cc2ccccc2)c1" has a reported Ki of 18000
